% Inhibition @ 10 uM values, listed per item
TARGET_UNDER_TEST: DPAP1 (Plasmodium falciparum);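 note: 30 min substrate incubation versus DMSO and 10 µM JCP410 controls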
Sequence (Q8IIJ9 whole entry, looked up): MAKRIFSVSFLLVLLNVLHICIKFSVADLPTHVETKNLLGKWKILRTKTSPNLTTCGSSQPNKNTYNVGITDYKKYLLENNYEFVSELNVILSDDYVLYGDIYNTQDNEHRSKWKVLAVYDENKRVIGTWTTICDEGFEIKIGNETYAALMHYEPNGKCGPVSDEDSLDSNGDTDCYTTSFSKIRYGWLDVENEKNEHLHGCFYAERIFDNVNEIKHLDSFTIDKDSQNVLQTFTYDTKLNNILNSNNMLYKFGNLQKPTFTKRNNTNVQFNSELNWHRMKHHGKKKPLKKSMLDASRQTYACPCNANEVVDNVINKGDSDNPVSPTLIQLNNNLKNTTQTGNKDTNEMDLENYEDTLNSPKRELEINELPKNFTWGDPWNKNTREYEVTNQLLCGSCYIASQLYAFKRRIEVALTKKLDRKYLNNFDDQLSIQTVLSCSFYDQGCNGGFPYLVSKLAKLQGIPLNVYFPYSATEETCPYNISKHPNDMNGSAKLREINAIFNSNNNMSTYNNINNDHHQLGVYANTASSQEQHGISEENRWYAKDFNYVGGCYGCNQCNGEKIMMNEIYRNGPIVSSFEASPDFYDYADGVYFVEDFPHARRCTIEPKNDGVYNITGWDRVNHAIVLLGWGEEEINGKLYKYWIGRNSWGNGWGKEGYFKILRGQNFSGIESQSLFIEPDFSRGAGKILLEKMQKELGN
TEST_DESCRIPTION: primary screen, percent inhibition; read by cleavage of a fluorogenic dipeptide substrate; higher = more effect of the substance
Design: species or system P. falciparum D10 trophozoite lysates; single well
In all, about 110,000 compounds went through this assay and about 230 (0.21%) showed an effect of 50% or more. The sample as a whole holds a higher share of strong results than the screen did.
RECORDED_ENDPOINT: % Inhibition @ 10 uM (%)

INSERT INTO results (smiles_string, recorded_endpoint, endpoint_value) VALUES
  ('Cc1ccc2[nH]c3nc(S)nnc3c2c1', '% Inhibition @ 10 uM', 12.4),
  ('Cc1ccc2c(c1)c1nnc(S)nc1n2Cc1ccccc1', '% Inhibition @ 10 uM', 3.73),
  ('c1ccc(CC2CCN(c3ncnc4sc5c(c34)CCCC5)CC2)cc1', '% Inhibition @ 10 uM', 2.92);
